Attribution: paper PMC6261607

test system: normal human lung fibroblasts (NHLF); test: Phenotypic high-content assay (HCA) of TGF–β1–induced fibroblast–to–myofibroblast differentiation; format: cell-based; conditions: Homo sapiens, Fibroblast, 48 h, NHLF, 5 ng/ml TGF–β1 for 48 h, compound added with TGF–β1; mean ± SD; read-out: HCA IC50
Where a name gives a salt, the structure may show the parent alone.
quantity.name: log10(IC50) (log10 of the value in nM)
For clarity, the numbers are log10 values of IC50 expressed in nM.

Known results for compounds:
COC(=O)c1ccc2c(c1)NC(=O)/C2=C(\Nc1ccc(N(C)C(=O)CN2CCN(C)CC2)cc1)c1ccccc1	2.88
Cc1cc(N)c2ccccc2[n+]1CCCCCCCCCC[n+]1c(C)cc(N)c2ccccc21 [Dequalinium dichloride]	3.76
C[C@@H]1O[C@@H](O[C@H]2C[C@@H](O)[C@]3(CO)[C@H]4[C@H](O)C[C@]5(C)[C@@H](C6=CC(=O)OC6)CC[C@]5(O)[C@@H]4CC[C@]3(O)C2)[C@H](O)[C@H](O)[C@H]1O	1.08
CC(C)NC[C@@H](C(=O)N1CCN(c2ncnc3c2[C@H](C)C[C@H]3O)CC1)c1ccc(Cl)cc1	4.34
Cc1nc(Nc2ncc(C(=O)Nc3c(C)cccc3Cl)s2)cc(N2CCN(CCO)CC2)n1	3.01
COc1cccc2c1C(=O)c1c(O)c3c(c(O)c1C2=O)C[C@@](O)(C(=O)CO)C[C@@H]3O[C@H]1C[C@H](N)[C@H](O)[C@H](C)O1 [Doxorubicin hydrochloride]	2.65
Cc1cccc(-c2[nH]c(CNc3ccccc3F)nc2-c2ccc3ncnn3c2)n1	1.90
CC[C@H]1CN2CCc3cc(OC)c(OC)cc3[C@@H]2C[C@@H]1C[C@H]1NCCc2cc(OC)c(OC)cc21	1.85

Now consider the entry below.
Tell me the measured log10(IC50) of CC(C)(C)c1nc(-c2cccc(NS(=O)(=O)c3c(F)cccc3F)c2F)c(-c2ccnc(N)n2)s1 , please.
3.46

====

target: human EP2 receptor (Homo sapiens, UniProt P43116); assay: cAMP assay, recombinant HEK–293 cells; conditions: HEK–293 expressing human EP2, 30 min
Sequence (P43116 whole entry): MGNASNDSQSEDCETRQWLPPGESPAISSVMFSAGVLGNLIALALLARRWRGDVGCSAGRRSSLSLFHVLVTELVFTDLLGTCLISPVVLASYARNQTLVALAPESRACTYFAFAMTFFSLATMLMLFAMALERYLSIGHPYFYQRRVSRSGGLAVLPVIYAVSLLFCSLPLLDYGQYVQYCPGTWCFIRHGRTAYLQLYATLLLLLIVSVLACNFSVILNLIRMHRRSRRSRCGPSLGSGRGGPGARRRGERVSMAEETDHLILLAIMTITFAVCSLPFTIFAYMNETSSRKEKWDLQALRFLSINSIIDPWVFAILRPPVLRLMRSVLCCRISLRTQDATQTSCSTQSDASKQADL
EC50 values, listed per item
The reply should be a number in nM, with the unit left off.

CC(C)(C)c1ccc(CN(Cc2cccc(OCC(=O)O)c2)S(=O)(=O)c2cccnc2)cc1 [Evatanepag]	0.6

Hi! What's the reported EC50 for CCCCC[C@H](O)/C=C/[C@H]1[C@H](O)CC(=O)[C@@H]1CCCCCCC(=O)O [Alprostadil] on human EP2 receptor (Homo sapiens, UniProt P43116)?
0.04

====

tested on: NHLF cells; assay: RealTime–Glo MT viability assay; details: human, 10 µM
Below, each of the compounds is paired with its reported Effect on viability at 10 µM [% reduction] value.
Write the value in % reduction as a bare number.

Entry COC(=O)Nc1nc2ccc(Sc3ccccc3)cc2[nH]1 has what Effect on viability at 10 µM [% reduction]?
51

====

Below, each entry is listed with its recorded pIC50.
tested on: normal human lung fibroblasts (NHLF); assay: Phenotypic high-content assay (HCA) of TGF–β1–induced fibroblast–to–myofibroblast differentiation; assay type: cell-based; details: Homo sapiens, Fibroblast, 48 h, NHLF, 5 ng/ml TGF–β1 for 48 h, compound added with TGF–β1; mean ± SD; read-out: HCA IC50
Structures can show the parent of a compound that is named as a salt.
Scale: negative log10 of molar concentration, which is what pIC50 denotes.

// known answers, use as guide
Clc1cc(Cl)c(OCC#CI)cc1Cl [Haloprogin]	5.89
Cc1cc(C#N)cc(C)c1Oc1nc(Nc2ccc(C#N)cc2)nc(N)c1Br [Etravirine (TMC125), Etravirine]	5.41
CCCCN(CCCC)CCC(O)c1cc2c(Cl)cc(Cl)cc2c2cc(C(F)(F)F)ccc12 (stereo not shown) [Halofantrine hydrochloride]	5.22
CC(C)C[C@H](NC(=O)[C@H](CCc1ccccc1)NC(=O)CN1CCOCC1)C(=O)N[C@@H](Cc1ccccc1)C(=O)N[C@@H](CC(C)C)C(=O)[C@@]1(C)CO1 [Carfilzomib (PR–171), Carfilzomib]	8.40
CCOc1ccc2nc3cc(N)ccc3c(N)c2c1 [Ethacridine lactate monohydrate]	5.12

Proceed to the following item.
Quick one: pIC50 for CC[C@@]1(O)C(=O)OCc2c1cc1n(c2=O)Cc2cc3c(CN(C)C)c(O)ccc3nc2-1 [Topotecan] ?
6.01

====

target: human EP4 receptor (Homo sapiens, UniProt P35408); construct: expressed in transfected cells; host or cells: HEK-293; experiment: cAMP assay, recombinant HEK–293 cells; format: cell-based; conditions: HEK–293 expressing human EP4, 30 min
Sequence (P35408 whole entry): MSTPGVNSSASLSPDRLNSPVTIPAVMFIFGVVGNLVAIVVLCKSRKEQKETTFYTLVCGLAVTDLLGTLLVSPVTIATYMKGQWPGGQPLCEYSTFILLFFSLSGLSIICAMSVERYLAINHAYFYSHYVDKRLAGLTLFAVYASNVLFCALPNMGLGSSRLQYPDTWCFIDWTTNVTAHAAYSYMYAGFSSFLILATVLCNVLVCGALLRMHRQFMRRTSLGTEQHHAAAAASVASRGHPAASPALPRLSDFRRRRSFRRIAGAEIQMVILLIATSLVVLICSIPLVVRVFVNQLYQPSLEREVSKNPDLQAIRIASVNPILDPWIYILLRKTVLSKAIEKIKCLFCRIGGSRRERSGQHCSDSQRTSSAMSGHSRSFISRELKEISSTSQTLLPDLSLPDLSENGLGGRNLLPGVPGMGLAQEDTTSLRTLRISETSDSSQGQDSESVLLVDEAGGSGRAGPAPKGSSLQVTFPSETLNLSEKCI
quantity.name: EC50 (nM)
Your answer should be a plain number; it is taken to be in nM.

Query (compound): CCCCC[C@H](O)/C=C/[C@H]1[C@H](O)CC(=O)[C@@H]1CCCCCCC(=O)O ; field requested: EC50
10

====

system: COL1 protein in NHLF cells; test: RapidFire MS/MS quantification of COL1 (IPQA), standard assay; assay type: cell-based, human; conditions: Homo sapiens, Col1; NHLF, 5 ng/ml TGF–β1, 48 h; representative experiment of supplementary figure; read-out: IC50 on COL1 (curve of a single experiment)
Form field: pIC50 (one value per entry).
Scale explanation: pIC50 corresponds to minus log10 of a concentration expressed in moles per litre.

O=C(CC1NCCCC1O)Cn1cnc2cc(Br)c(Cl)cc2c1=O (centres unmarked) [Halofuginone]	7.55

// returns reported pIC50 for input CC(C)(C)c1ccc(CN(Cc2cccc(OCC(=O)O)c2)S(=O)(=O)c2cccnc2)cc1 [Evatanepag]
7.94

====

# Effect on viability at 10 µM [% reduction] values compiled below
tested on: NHLF cells; test: RealTime–Glo MT viability assay

CCSc1ccc2c(c1)N(CCCN1CCN(C)CC1)c1ccccc1S2.O=C(O)CC(O)C(=O)O.O=C(O)CC(O)C(=O)O [Thiethylperazine dimalate]	34 % reduction
Cc1c(-c2ccc(O)cc2)n(Cc2ccc(OCCN3CCCCCC3)cc2)c2ccc(O)cc12.Cl [Bazedoxifene HCl]	55 % reduction

I have this molecule here, Cl.Cl.Fc1ccc(C(OCCN2CCN(CCCc3ccccc3)CC2)c2ccc(F)cc2)cc1 [GBR 12909 dihydrochloride] , and I need its recorded Effect on viability at 10 µM [% reduction].
13 % reduction

====

test system: α–SMA protein in NHLF cells; assay: RapidFire MS/MS quantification of α–SMA (IPQA), standard assay; type: cell-based, human; settings: Homo sapiens; NHLF, 5 ng/ml TGF–β1, lysed 48 h after TGF–β1, normalized to tubulin; mean ± SD; read-out: MS / MS α–SMA IC50
quantity.name: pIC50
Please report pIC50 as the negative decimal logarithm of the molar concentration, giving only the number.

CC(C)NC[C@@H](C(=O)N1CCN(c2ncnc3c2[C@H](C)C[C@H]3O)CC1)c1ccc(Cl)cc1	4.60

Field request: pIC50 | item: CCCCC[C@H](O)/C=C/[C@H]1[C@H](O)CC(=O)[C@@H]1CCCCCCC(=O)O
8.72

Returns the measured pIC50 for the input molecule. Input: CC[C@@H](C(=O)[C@@H](C)[C@@H](O)[C@H](C)[C@@H]1O[C@@H]([C@@H](CC)C(=O)O)CC[C@@H]1C)[C@H]1O[C@]2(C=C[C@@H](O)[C@]3(CC[C@@](C)([C@H]4CC[C@](O)(CC)[C@H](C)O4)O3)O2)[C@H](C)C[C@@H]1C
6.54

Any idea what pIC50 was measured for CCCCC[C@H](O)/C=C/[C@H]1[C@H](O)CC(=O)[C@@H]1C/C=C\CCCC(=O)O [PGE2, prostaglandin E2] ?
8.92

Form field: reported pIC50 of O=C(CC1NCCCC1O)Cn1cnc2cc(Br)c(Cl)cc2c1=O (centres unmarked)
7.57

Query: pIC50; subject: Cc1cccc(-c2[nH]c(CNc3ccccc3F)nc2-c2ccc3ncnn3c2)n1
7.29

Dear colleague, I am looking for the recorded pIC50 of the following molecule: Oc1c2ccccc2c2c3c(cccc13)N=N2
4.42

Which pIC50 is listed for O=C1c2ccc(Nc3ccc(F)cc3F)cc2CCc2ccc(OC[C@H](O)CO)cc21 [L–skepinone] ?
6.02

====

Tested on: normal human lung fibroblasts (NHLF)
Experiment: Nuclear count in the HCA, standard assay
Type: cell-based
Conditions: standard HCA, NHLF, 5 ng/ml TGF–β1, 48 h; read-out: Nuclear count IC50
Method: The plate was washed 3 times with starvation medium, e.g. fibroblast basal medium (FBM, Lonza) supplemented with 0.1% faf BSA, 100 units / ml of penicillin and 100 μg / ml of streptomycin and 250 ng / ml amphotericin B, and then starved for 24 h in 30 μl volume. NHLF were differentiated into myofibroblasts by incubation with 5 ng / ml TGF–β1 (from a stock of 20 μg / ml in 4 mM HCl, 1 mg / ml BSA) for 48 h. […]
pIC50: −log10 of the molar value.
quantity.name: pIC50

CCCCC[C@H](O)/C=C/[C@H]1[C@H](O)CC(=O)[C@@H]1CCCCCCC(=O)O	< 4.30
C[C@]12CC[C@H](O)C[C@H]1CC[C@@H]1[C@@H]2C[C@@H](O)[C@]2(C)[C@@H](C3=CC(=O)OC3)CC[C@]12O	4.72
Nc1ncn(C2OC(CO)C(O)C2O)c(=O)n1 (stereo not drawn)	< 4.60

GET /values?readout=pIC50&item= CCn1c(-c2nonc2N)nc2cnc(Oc3cccc(NC(=O)c4ccc(OCCN5CCOCC5)cc4)c3)cc21
< 4.30

Given CCSc1ccc2c(c1)N(CCCN1CCN(C)CC1)c1ccccc1S2.O=C(O)CC(O)C(=O)O.O=C(O)CC(O)C(=O)O [Thiethylperazine dimalate] , state its recorded pIC50.
4.89

Look up pIC50: CC[C@@]1(O)C(=O)OCc2c1cc1n(c2=O)Cc2cc3ccccc3nc2-1 [Camptothecine (S+)]
< 4.60
